Origin of measurements: ChEMBL document CHEMBL3616440

# System: Brain
# test.name: Drug concentration in Sprague-Dawley rat brain assessed as 6-(4-chlorophenyl)-3-(6-(4-hydroxypiperidin-1-yl)pyridin-3-yl)pyrrolo[1,2-f][1,2,4]triazin-4(3H)-one level at 10 mg/kg, po qd at 20 hrs
# Type: ADME, organism-based
# settings: in vivo, read-out: Drug uptake
measured.quantity: concentration (µM)
Give the quantity in µM, number only.

What value of concentration has been recorded for this entry: `CC(C)[C@H](N)C(=O)OC1CCN(c2ccc(-n3cnn4cc(-c5ccc(Cl)cc5)cc4c3=O)cn2)CC1`
10.1

###

# Test system: Brain
# test.name: Drug concentration in Sprague-Dawley rat brain assessed as ((R)-6-(5-chloropyridin-2-yl)-3-(4-(3-hydroxypyrrolidin-1-yl)-3-methoxyphenyl)pyrrolo[1,2-f][1,2,4]triazin-4(3H)-one level at 10 mg/kg, po qd at 8 hrs
# Assay type: ADME, organism-based
# settings: in vivo, read-out: Drug uptake
measured.quantity: concentration (nM)
Give the quantity in nM, number only.

What value of concentration has been recorded for this entry: `COc1cc(-n2cnn3cc(-c4ccc(Cl)cn4)cc3c2=O)ccc1N1CC[C@@H](OC(=O)[C@@H](N)C(C)C)C1`
664
